Each recorded value in this set is attributed to ChEMBL document CHEMBL4229518.

Tested on: Escherichia coli
Assay: Antimicrobial activity against Escherichia coli isolate SJ 4 after 18 to 20 hrs by microbroth dilution method
Type: functional
measurement_kind: MIC

compound | meas_value
CO[C@@]1(NC(=O)C2SC(=C(C(N)=O)C(=O)O)S2)C(=O)N2C(C(=O)O)=C(CSc3nnnn3C)CS[C@@H]21 (stereo partly drawn) | 1.56 µg/mL
CC1(C)S[C@@H]2[C@H](NC(=O)[C@H](N)c3ccccc3)C(=O)N2[C@H]1C(=O)O | > 200 µg/mL

Next:
Give the measured MIC of CO[C@@]1(NC(=O)CCCC(=O)C2=C(O)[C@@H](CCCNC(=N)N)NC2=O)C(=O)N2C(C(=O)O)=C(CSc3nnnn3C)CS[C@@H]21 .
25 µg/mL
